- Experimental details: UV absorbance spectrum in solution (λmax, λcrit, extinction coefficients)
- Format: physicochemical
Assay readout: λmax (nm)

Molecule: CN(C)S(=O)(=O)c1ccc(C(=O)/C(=C/N2CCc3ccccc32)c2ccccc2)cc1
λmax [nm]: 368
//
Molecule: O=C(/C(=C\N(Cc1ccccc1)c1ccccc1)c1ccccc1)C(F)(F)F
λmax [nm]: 329
//
Molecule: COC(=O)c1ccc2c(c1)CCN2/C=C(/C(=O)C(=O)N1CCc2ccccc21)c1ccccc1
λmax [nm]: 375
//
Molecule: CCOC(=O)C(=O)/C(=C\N1CCc2ccccc21)c1ccccc1
λmax [nm]: 363
//
Molecule: CCN(/C=C(\C(=O)C(F)(F)F)c1ccccc1)CC
λmax [nm]: 319
//
Molecule: CCCCC(CC)COC(=O)c1ccc(N(/C=C(\C(=O)C(F)(F)F)c2ccccc2)CC)cc1 (centres unmarked)
λmax [nm]: 347
//
Molecule: COC(=O)c1ccc2c(c1)CCN2C=C(C(=O)C(C)(C)C)c1ccc(C)cc1
λmax [nm]: 368
